B1: TPR 5TU (parent)
chain: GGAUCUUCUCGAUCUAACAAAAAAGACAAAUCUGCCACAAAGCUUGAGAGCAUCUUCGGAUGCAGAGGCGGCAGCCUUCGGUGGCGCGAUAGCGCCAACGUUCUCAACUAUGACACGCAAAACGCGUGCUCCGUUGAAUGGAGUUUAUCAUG

Variants of: B1
ASSAY NAME: polymerase ribozyme fitness, log enrichment relative to wild type (log ratio); higher = more active; in vitro selection for triplet polymerase activity
This sample holds only a part of the variants without activity.
Each entry gets false (0) if its polymerase ribozyme fitness (log ratio) stays under -2, and true (1) if its polymerase ribozyme fitness (log ratio) is -2 or above.

Task: Dear colleague, could you confirm whether C57U C79A has polymerase ribozyme fitness (log ratio) at or above -2?
Output: false (0)

Task: Dear colleague, could you confirm whether U56A C57U C96U has polymerase ribozyme fitness (log ratio) at or above -2?
Output: true (1)

Task: Dear colleague, could you confirm whether C8G C10G C14G A41C G83U A119U G141C has polymerase ribozyme fitness (log ratio) at or above -2?
Output: false (0)

Task: Dear colleague, could you confirm whether C57G G59A U78G G84A has polymerase ribozyme fitness (log ratio) at or above -2?
Output: false (0)

Task: Dear colleague, could you confirm whether G42A G88A G124A C125U C129A has polymerase ribozyme fitness (log ratio) at or above -2?
Output: false (0)

Task: Dear colleague, could you confirm whether A47G U82G C95G has polymerase ribozyme fitness (log ratio) at or above -2?
Output: false (0)

Task: Dear colleague, could you confirm whether C85A U139G has polymerase ribozyme fitness (log ratio) at or above -2?
Output: true (1)

Task: Dear colleague, could you confirm whether A29U A39C A40U U45G U77G has polymerase ribozyme fitness (log ratio) at or above -2?
Output: false (0)

Task: Dear colleague, could you confirm whether A113G A147C has polymerase ribozyme fitness (log ratio) at or above -2?
Output: false (0)

Task: Dear colleague, could you confirm whether A113C U148C has polymerase ribozyme fitness (log ratio) at or above -2?
Output: false (0)

Task: Dear colleague, could you confirm whether U33A G50A A64C G83C has polymerase ribozyme fitness (log ratio) at or above -2?
Output: false (0)

Task: Dear colleague, could you confirm whether A49C U134G has polymerase ribozyme fitness (log ratio) at or above -2?
Output: false (0)

Task: Dear colleague, could you confirm whether C35A has polymerase ribozyme fitness (log ratio) at or above -2?
Output: false (0)

Task: Dear colleague, could you confirm whether G50A C93A A97G C99U U109G has polymerase ribozyme fitness (log ratio) at or above -2?
Output: false (0)

Task: Dear colleague, could you confirm whether C27U A64G C75G G86A C105U has polymerase ribozyme fitness (log ratio) at or above -2?
Output: false (0)

Task: Dear colleague, could you confirm whether A29C C85U has polymerase ribozyme fitness (log ratio) at or above -2?
Output: false (0)

Task: Dear colleague, could you confirm whether C35U G58A C95U has polymerase ribozyme fitness (log ratio) at or above -2?
Output: true (1)

Task: Dear colleague, could you confirm whether G11U C18U G84U has polymerase ribozyme fitness (log ratio) at or above -2?
Output: false (0)

Task: Dear colleague, could you confirm whether G11C A17G C32A C72U A113U G117U A122U U148G has polymerase ribozyme fitness (log ratio) at or above -2?
Output: false (0)

Task: Dear colleague, could you confirm whether U13C A16U G84A U109G has polymerase ribozyme fitness (log ratio) at or above -2?
Output: true (1)

Task: Dear colleague, could you confirm whether A17U C51U U55A U78A G81C C123G has polymerase ribozyme fitness (log ratio) at or above -2?
Output: false (0)

Task: Dear colleague, could you confirm whether C5A G11C C85U A119C C131G G141C has polymerase ribozyme fitness (log ratio) at or above -2?
Output: true (1)
